Please find below Kd data on UniProt:Q07889 compiled from the literature.

Worked cases, Kd given:
Exercise: Report Kd, nothing else, for this compound: C[C@@H](Nc1nc(Cl)nc2c1CN(C(=O)c1ncccc1C(F)(F)F)C2)c1cc(N)cc(C(F)(F)F)c1
Key: < 400 nM

Exercise: Report Kd, nothing else, for this compound: C[C@@H](Nc1nc(Cl)nc2c1CN(C(=O)N1CC3CNCC(C1)O3)C2)c1cccc(C(F)F)c1F
Key: < 400 nM

Exercise: Report Kd, nothing else, for this compound: C[C@@H](Nc1nc(Cl)nc2c1CN(C(=O)N1C[C@@H]3C[C@H]1CN3)C2)c1cccc(C(F)F)c1F
Key: < 400 nM

Exercise: Report Kd, nothing else, for this compound: C[C@@H](Nc1nc(Cl)nc2c1CN(C(=O)c1cccnn1)C2)c1cc(N)cc(C(F)(F)F)c1
Key: < 400 nM

Next:
Exercise: Report Kd, nothing else, for this compound: Cc1nc2c(c(N[C@H](C)c3cc(N)cc(C(F)(F)F)c3)n1)CN(S(=O)(=O)N1CCOCC1)C2
Key: < 400 nM

Exercise: Report Kd, nothing else, for this compound: C[C@@H](NC(=O)c1cn(C2(C(F)F)CC2)c(=O)cc1NC1CCN(CCF)CC1)c1cccc(C(F)F)c1F
Key: 17 nM

Exercise: Report Kd, nothing else, for this compound: Cc1c([C@@H](C)NC(=O)c2cn(C3CCOCC3)c(=O)cc2N[C@H]2CC[C@H](O)C2)cccc1C(F)(F)F
Key: 91 nM

Exercise: Report Kd, nothing else, for this compound: C[C@@H](Nc1ncnc2cn(CC3CCOC3)cc12)c1cc(N)cc(C(F)(F)F)c1 (some centres unmarked)
Key: ≤ 400 nM

Exercise: Report Kd, nothing else, for this compound: COC1(C(=O)N2Cc3nc(Cl)nc(N[C@H](C)c4cccc(C(F)F)c4F)c3C2)CCN(C(C)=O)CC1
Key: < 400 nM

Exercise: Report Kd, nothing else, for this compound: C[C@@H](NC(=O)c1cn([C@H]2CCC2(F)F)c(=O)cc1N[C@H]1[C@@H]2CN(C)C[C@@H]21)c1cccc(C(F)(F)F)c1F (single isomer, unassigned)
Key: 3 nM

Exercise: Report Kd, nothing else, for this compound: C[C@@H](Nc1nc(Cl)nc2c1CN(S(=O)(=O)CCO)CC2)c1cc(N)cc(C(F)(F)F)c1
Key: < 400 nM

Exercise: Report Kd, nothing else, for this compound: C[C@@H](Nc1nc(Cl)nc2c1CN(S(=O)(=O)C1CCOCC1)CC2)c1cc(N)cc(C(F)(F)F)c1
Key: < 400 nM

Exercise: Report Kd, nothing else, for this compound: COc1ccc(CC(=O)N2Cc3nc(Cl)nc(N[C@H](C)c4cc(N)cc(C(F)(F)F)c4)c3C2)cc1OC
Key: > 400 nM

Exercise: Report Kd, nothing else, for this compound: C[C@@H](Nc1nc(Cl)nc2c1CN(C(=O)C1(C#N)CCNCC1)C2)c1cccc(C(F)F)c1F
Key: < 400 nM
